Reference source for all entries: ChEMBL document CHEMBL2380217

molecular target: UniProt P34972; experiment: Agonist activity at human CB2 receptor transfected in CHO cells assessed as inhibition of forskolin-stimulated adenylyl cyclase activity after 15 mins by liquid scintillation spectrophotometry
Sequence (P34972 whole entry): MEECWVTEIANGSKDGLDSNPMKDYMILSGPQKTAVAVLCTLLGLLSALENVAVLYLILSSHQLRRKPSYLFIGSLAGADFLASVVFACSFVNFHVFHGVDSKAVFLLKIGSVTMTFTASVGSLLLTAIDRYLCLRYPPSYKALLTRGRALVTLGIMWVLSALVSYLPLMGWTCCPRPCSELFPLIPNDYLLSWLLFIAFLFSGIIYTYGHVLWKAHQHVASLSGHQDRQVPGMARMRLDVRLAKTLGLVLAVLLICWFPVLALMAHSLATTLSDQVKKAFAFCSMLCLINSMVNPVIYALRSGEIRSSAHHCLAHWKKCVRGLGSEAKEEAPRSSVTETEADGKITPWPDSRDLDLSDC
measure.name: pKi
Numbers only, as −log10 of the molar value.

CCCCn1cc(C(=O)c2cccc3ccccc23)c2ccccc21 :: 8.01

# next molecule below
With UniProt P34972 as the test system, "CCCCn1cc(C(=O)c2cccc3ccccc23)c2cccc(O)c21" showed pKi of 7.11

====

target: Cannabinoid receptor 1 (Mus musculus) (UniProt P47746); assay: Agonist activity at CB1 receptor in mouse Neuro2a cells assessed as inhibition of forskolin-stimulated adenylyl cyclase activity at 10 uM after 15 mins by liquid scintillation spectrophotometry; type: functional, cell-based
Sequence (P47746 whole entry): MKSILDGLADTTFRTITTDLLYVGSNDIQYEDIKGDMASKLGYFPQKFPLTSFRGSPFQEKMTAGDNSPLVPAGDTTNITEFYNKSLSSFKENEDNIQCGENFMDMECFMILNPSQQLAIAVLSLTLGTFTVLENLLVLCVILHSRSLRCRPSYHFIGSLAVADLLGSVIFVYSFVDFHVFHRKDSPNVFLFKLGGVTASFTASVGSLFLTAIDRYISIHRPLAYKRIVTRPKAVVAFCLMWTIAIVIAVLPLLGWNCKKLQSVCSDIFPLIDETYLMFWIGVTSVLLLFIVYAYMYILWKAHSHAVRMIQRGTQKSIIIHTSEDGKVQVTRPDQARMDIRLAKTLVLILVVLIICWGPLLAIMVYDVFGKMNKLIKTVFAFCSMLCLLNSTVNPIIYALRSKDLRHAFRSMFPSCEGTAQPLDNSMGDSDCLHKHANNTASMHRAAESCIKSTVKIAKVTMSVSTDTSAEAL
measure.name: inhibition (%)
Give bare numbers, in %.

Example results:
CCCCn1cc(-c2ccc3ccccc3c2)c2cccc(OC)c21 :: 16
CCCCn1cc(C(=O)c2ccc(F)cc2)c2cccc(OC)c21 :: 45

Okay, here is my list. What is inhibition for each of these?
1. CCCCn1cc(C(=O)c2cccc3ccccc23)c2cccc(O)c21
2. CCCCn1cc(Cc2cccc3ccccc23)c2cccc(OC)c21
3. CCCCn1cc(C(=O)Cc2ccccc2F)c2cccc(OC)c21
4. CCCCCCC(C)(C)c1ccc([C@@H]2C[C@H](O)CC[C@H]2CCCO)c(O)c1
5. CCCCn1cc(C(=O)Cc2cccc(F)c2F)c2cccc(OC)c21
6. CCCCn1cc(C(=O)Cc2cccc3ccccc23)c2cccc(OC)c21

1. 55
2. 18
3. 45
4. 45
5. 35
6. 34

Okay, here is my list. What is inhibition for each of these?
1. COc1cccc2c(C(=O)c3cccc4ccccc34)cn(CCN3CCOCC3)c12
2. CCCCn1cc(C(=O)c2cccc3ccccc23)c2cccc(OC)c21
3. CCCCn1cc(C(=O)c2cccc3ccccc23)c2cc(O)ccc21
4. CCCCn1cc(C(=O)Cc2ccccc2)c2cccc(OC)c21

1: 39; 2: 51; 3: 39; 4: 34

====

biological target: Cannabinoid receptor 1 (Mus musculus); assay: Displacement of [3H]CP-55940 from mouse brain CB1 receptor at 1 uM after 90 mins by scintillation counting analysis; type: tissue-based
Could you label it T if measured Activity is 70% or higher, and F otherwise?

Hi, just wondering whether "CCCCn1cc(C(=O)Cc2cccc3ccccc23)c2cccc(O)c21" shows Activity of 70% or higher. F

Hi, just wondering whether "CCCCn1cc(C(=O)c2cccc3ccccc23)c2cc(OC)ccc21" shows Activity of 70% or higher. T

Hi, just wondering whether "CCCCn1cc(C(=O)c2ccc(F)cc2)c2cccc(OC)c21" shows Activity of 70% or higher. T

Hi, just wondering whether "CCCCn1cc(C(=O)Cc2ccc(F)cc2)c2cccc(O)c21" shows Activity of 70% or higher. F

Hi, just wondering whether "CCCCn1cc(C(=O)Cc2ccc(F)cc2)c2cccc(OC)c21" shows Activity of 70% or higher. F

Hi, just wondering whether "CCCCn1cc(C(=O)Cc2ccccc2)c2cccc(O)c21" shows Activity of 70% or higher. F

Hi, just wondering whether "CCCCn1cc(C(=O)Cc2ccc(F)cc2)c2cccc(CC)c21" shows Activity of 70% or higher. F

Hi, just wondering whether "CCCCn1cc(C(=O)Cc2ccc(OC)cc2)c2cccc(OC)c21" shows Activity of 70% or higher. F

Hi, just wondering whether "CCCCn1cc(C(=O)Cc2ccccc2F)c2cccc(OC)c21" shows Activity of 70% or higher. T

Hi, just wondering whether "COc1cccc2c(C(=O)c3cccc4ccccc34)cn(CCN3CCOCC3)c12" shows Activity of 70% or higher. T

Hi, just wondering whether "CCCCn1cc(C(=O)Cc2cccc(F)c2)c2cccc(OC)c21" shows Activity of 70% or higher. F

Hi, just wondering whether "CCCCn1cc(C(=O)Cc2cccc(F)c2F)c2cccc(OC)c21" shows Activity of 70% or higher. T

Hi, just wondering whether "CCCCn1cc(C(=O)Cc2cccc3ccccc23)c2cccc(OC)c21" shows Activity of 70% or higher. T

Hi, just wondering whether "CCCCn1cc(C(=O)c2cccc3ccccc23)c2cc(O)ccc21" shows Activity of 70% or higher. T

Hi, just wondering whether "CCCCn1cc(C(=O)c2cccc3ccccc23)c2cccc(O)c21" shows Activity of 70% or higher. T

Hi, just wondering whether "CCCCn1cc(C(=O)Cc2ccc(F)c(F)c2)c2cccc(OC)c21" shows Activity of 70% or higher. F

Hi, just wondering whether "CCCCn1cc(-c2cccc3ccccc23)c2cccc(OC)c21" shows Activity of 70% or higher. T

Hi, just wondering whether "CCCCn1cc(C(=O)Cc2ccc(O)cc2)c2cccc(O)c21" shows Activity of 70% or higher. F

====

target: Cannabinoid receptor 2 (Mus musculus); assay: Displacement of [3H]CP-55940 from mouse […] CB2 receptor at 1 uM after 90 mins by scintillation counting analysis; type: tissue-based
measure.name: Activity

CCCCn1cc(C(=O)c2cccc3ccccc23)c2cc(OC)ccc21 :: 90%
CCCCn1cc(C(=O)Cc2cccc3ccccc23)c2cccc(OC)c21 :: 91%
CCCCn1cc(C(=O)Cc2cccc(F)c2)c2cccc(OC)c21 :: 91%

# next compound below
# Activity of "CCCCn1cc(C(=O)Cc2ccccc2)c2cccc(OC)c21" = 91%

====

target: Cannabinoid receptor 1 (Mus musculus) (UniProt P47746); test: Agonist activity at CB1 receptor in mouse Neuro2a cells assessed as inhibition of forskolin-stimulated adenylyl cyclase activity at 10 uM after 15 mins by liquid scintillation spectrophotometry; format: functional, cell-based
measure.name: inhibition (%)
Give bare numbers, in %.

Example results:
CCCCn1cc(C(=O)Cc2ccc(F)cc2)c2cccc(OC)c21 :: -4
CCCCn1cc(C(=O)c2cccc3ccccc23)c2cc(OC)ccc21 :: 47

# next compound below
# inhibition of "CCCCn1cc(-c2cccc3ccccc23)c2cccc(OC)c21" = 39

====

Provide the recorded Activity for the entries that follow.
target: Cannabinoid receptor 1 (Mus musculus); assay: Displacement of [3H]CP-55940 from mouse brain CB1 receptor at 1 uM after 90 mins by scintillation counting analysis; assay type: tissue-based
Answers are plain numbers, in %.

Example results:
CCCCn1cc(C(=O)Cc2ccccc2)c2cccc(OC)c21 :: 69
CCCCn1cc(-c2ccc3ccccc3c2)c2cccc(OC)c21 :: 82
CCCCn1cc(C(=O)c2cccc3ccccc23)c2cccc(OC)c21 :: 93

# next compound below
# Activity of "CCCCn1cc(Cc2cccc3ccccc23)c2cccc(OC)c21" = 90
